Taken from patent US20060257938A1.

assay_overview: Probe fluorescence ratio response to linolenic acid relative to ADIFAB2
Type: binding
test_settings: response relative to ADIFAB2
List of DR/DR LNA values.

Sample records with DR/DR LNA:
| molecule | observed_measurement |
| --- | --- |
| 51W2, 72A (protein, listed as Rattus norvegicus, PEPTIDE (1)...(131) wild-type rat intestinal fatty acid binding protein) AFDGTWKVDRNENYEKFMEKMGINVVKRKLGAHDNLKLTITQEGNKFTVKWSSNFRNIDVVFELGVDFAYSAADGTELTGTWTMEGNKLVGKFKRVDNGKELIAVREISGNELIQTYTYEGVEAKRIFKKE | 1.70 |
| 49Y1, 72A (protein, listed as Rattus norvegicus, PEPTIDE (1)...(131) wild-type rat intestinal fatty acid binding protein) AFDGTWKVDRNENYEKFMEKMGINVVKRKLGAHDNLKLTITQEGNKFTYKESSNFRNIDVVFELGVDFAYSAADGTELTGTWTMEGNKLVGKFKRVDNGKELIAVREISGNELIQTYTYEGVEAKRIFKKE | 1.44 |

# next molecule below
Q: Query: DR/DR LNA; subject: 104T1, 72A (protein, listed as Rattus norvegicus, PEPTIDE (1)...(131) wild-type rat intestinal fatty acid binding protein) AFDGTWKVDRNENYEKFMEKMGINVVKRKLGAHDNLKLTITQEGNKFTVKESSNFRNIDVVFELGVDFAYSAADGTELTGTWTMEGNKLVGKFKRVDNGKELITVREISGNELIQTYTYEGVEAKRIFKKE
Ans: 1.07
